# Target Under Test: T1, GPC3 on the surface of hepatic cancer cell lines (SK-Hep1-GPC3 transfectant, HepG2, Huh7, Hep3B, SNU398) (human, UniProt P51654 25-554)
# T1 construct: Species is not restated for the cells (hepatic cancer cell lines, or SK-Hep1 transfected with pCMV/GPC3); also called glypican 3
# Test Summary: FACS, SK-Hep1-GPC3 #9 cells, 1 ug antibody; upper right panel

>  <Binder>
clone GS017 (scFv, V domains shown, scFv library clone tested as culture supernatant) VH: EVQLLESGGGLVQPGGSLRLSCAASGFTFSGYAMSWVRQAPGKGLEWVSGISPGDGSTYYADSVKGRFTISRDNSKNTLYLQMNSLRAEDTAVYYCARVARMCQGWRCSYADGMDVWGQGTLVTVSS VL: QSVLTQPPSASGTPGQRVTISCTGSSSNIGNNSVYWYQQLPGTAPKLLIYSDSHRPSGVPDRFSGSKSGTSASLAISGLRSEDEADYYCGTWDSSLSGYVFGGGTKLTVLG

>  <Mean, FL2-H>
27.5

$$$$
>  <Binder>
clone GS009 (scFv, V domains shown, scFv library clone tested as culture supernatant) VH: EVQLLESGGGLVQPGGSLRLSCAASGFTFSNYSMSWVRLAPGKGLEWVSVISPSGGNTYYADSVKGRFTISRDNSKNTLYLQMNSLRAEHTAVYYCARYRVKQMLNQRSYSNAMDVWGQGTLVTVSS VL: QSVLTQPPSASGTPGQRVTISCTGSSSNIGNNYVSWYQQLPGTAPKLLIYDDSQRPSGVPDRFSGSKSGTSASLAISGLRSEDEADYYCGSWDASLSGYVFGGGTKLTVLG

>  <Mean, FL2-H>
12.3

$$$$
>  <Binder>
clone GS005 (scFv, V domains shown, scFv library clone tested as culture supernatant) VH: EVQLLESGGGLVQPGGSLRLSCAASGFTFSNYAMSWVRQAPGKGLEWVSVISPDSSSKYYADSVKGRFTISRDNSKNTLYLQMNSLRAEDTAVYYCARAAVRRYGPSPYYYYAMDVWGQGTLVTVSS VL: QSVLTQPPSASGTPGQRVTISCTGSSSNIGNNYVTWYQQLPGTAPKLLIYADSHRPSGVPDRFSGSKSGTSASLAISGLRSEDEADYYCATWDYSLSGYVFGGGTKLTVLG

>  <Mean, FL2-H>
4.98

$$$$
